Form field: total protein half-life in vivo (one value per entry).
assay: total protein half-life in vivo (active degradation + dilution); higher = more stable protein; conditions: wild type E. coli NCM3722; growth: C-lim chemostat; doubling time 6 h
Give the number; h is assumed, so skip it.

Here's what some known entries look like.
>  <construct_sequence>
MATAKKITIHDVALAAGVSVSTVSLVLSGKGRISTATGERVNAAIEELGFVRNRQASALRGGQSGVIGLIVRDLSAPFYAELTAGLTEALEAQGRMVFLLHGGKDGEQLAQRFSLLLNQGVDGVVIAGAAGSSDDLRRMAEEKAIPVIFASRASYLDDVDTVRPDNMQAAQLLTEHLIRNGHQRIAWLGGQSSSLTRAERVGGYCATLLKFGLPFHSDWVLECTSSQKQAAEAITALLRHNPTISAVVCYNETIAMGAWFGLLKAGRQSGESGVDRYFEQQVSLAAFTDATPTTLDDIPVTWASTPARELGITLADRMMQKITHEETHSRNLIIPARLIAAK

>  <measured_result>
5.25

$$$$
>  <construct_sequence>
MRILLSNDDGVHAPGIQTLAKALREFADVQVVAPDRNRSGASNSLTLESSLRTFTFENGDIAVQMGTPTDCVYLGVNALMRPRPDIVVSGINAGPNLGDDVIYSGTVAAAMEGRHLGFPALAVSLDGHKHYDTAAAVTCSILRALCKEPLRTGRILNINVPDLPLDQIKGIRVTRCGTRHPADQVIPQQDPRGNTLYWIGPPGGKCDAGPGTDFAAVDEGYVSITPLHVDLTAHSAQDVVSDWLNSVGVGTQW [P0A840]

>  <measured_result>
6.21

$$$$

Query :: So what does the record say about total protein half-life in vivo for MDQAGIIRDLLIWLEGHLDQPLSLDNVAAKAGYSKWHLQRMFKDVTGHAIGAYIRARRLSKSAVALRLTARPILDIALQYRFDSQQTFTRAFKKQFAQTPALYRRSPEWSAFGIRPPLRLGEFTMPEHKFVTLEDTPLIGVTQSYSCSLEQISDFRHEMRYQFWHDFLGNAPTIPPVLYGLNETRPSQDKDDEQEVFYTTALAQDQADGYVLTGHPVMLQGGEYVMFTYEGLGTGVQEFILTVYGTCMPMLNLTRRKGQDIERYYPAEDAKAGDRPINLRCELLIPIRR [P0ACI0] ?
Result :: 6.47

====

test: total protein half-life in vivo (active degradation + dilution); higher = more stable protein; conditions: E. coli NCM3722 delta-clpP delta-lon delta-hslV; growth: N-lim chemostat; doubling time 6 h
measured_metric: total protein half-life in vivo (h)
Give the number; h is assumed, so skip it.

Here's what some known entries look like.
>  <construct_sequence>
MNKSMLAGIGIGVAAALGVAAVASLNVFERGPQYAQVVSATPIKETVKTPRQECRNVTVTHRRPVQDENRITGSVLGAVAGGVIGHQFGGGRGKDVATVVGALGGGYAGNQIQGSLQESDTYTTTQQRCKTVYDKSEKMLGYDVTYKIGDQQGKIRMDRDPGTQIPLDSNGQLILNNKV [P0AB35]

>  <measured_result>
0.776

$$$$
>  <construct_sequence>
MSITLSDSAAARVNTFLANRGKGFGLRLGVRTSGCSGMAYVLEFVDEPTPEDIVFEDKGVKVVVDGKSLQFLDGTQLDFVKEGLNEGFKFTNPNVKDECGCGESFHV [P0AAC8]

>  <measured_result>
3.72

$$$$
>  <construct_sequence>
MRILLSNDDGVHAPGIQTLAKALREFADVQVVAPDRNRSGASNSLTLESSLRTFTFENGDIAVQMGTPTDCVYLGVNALMRPRPDIVVSGINAGPNLGDDVIYSGTVAAAMEGRHLGFPALAVSLDGHKHYDTAAAVTCSILRALCKEPLRTGRILNINVPDLPLDQIKGIRVTRCGTRHPADQVIPQQDPRGNTLYWIGPPGGKCDAGPGTDFAAVDEGYVSITPLHVDLTAHSAQDVVSDWLNSVGVGTQW [P0A840]

>  <measured_result>
4.83

$$$$
>  <construct_sequence>
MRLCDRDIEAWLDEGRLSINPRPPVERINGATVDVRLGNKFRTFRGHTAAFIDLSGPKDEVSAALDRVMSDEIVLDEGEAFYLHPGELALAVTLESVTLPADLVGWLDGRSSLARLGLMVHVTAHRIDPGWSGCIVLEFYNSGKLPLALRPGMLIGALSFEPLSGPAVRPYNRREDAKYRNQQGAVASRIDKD

>  <measured_result>
3.92

$$$$

Query :: So what does the record say about total protein half-life in vivo for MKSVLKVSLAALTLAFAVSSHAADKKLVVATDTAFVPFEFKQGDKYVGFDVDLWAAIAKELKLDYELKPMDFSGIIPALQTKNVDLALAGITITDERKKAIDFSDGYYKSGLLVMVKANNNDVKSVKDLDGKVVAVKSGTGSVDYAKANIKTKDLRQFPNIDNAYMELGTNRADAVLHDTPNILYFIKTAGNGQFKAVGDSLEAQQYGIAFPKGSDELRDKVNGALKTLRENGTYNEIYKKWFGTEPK [P0AEQ3] ?
Result :: 4.54

Query :: Now consider MLKRVFLSLLVLIGLLLLTVLGLDRWMSWKTAPYIYDELQDLPYRQVGVVLGTAKYYRTGVINQYYRYRIQGAINAYNSGKVNYLLLSGDNALQSYNEPMTMRKDLIAAGVDPSDIVLDYAGFRTLDSIVRTRKVFDTNDFIIITQRFHCERALFIALHMGIQAQCYAVPSPKDMLSVRIREFAARFGALADLYIFKREPRFLGPLVPIPAMHQVPEDAQGYPAVTPEQLLELQKKQGK [P0AFY2] .
Result :: 5.75

Query :: Now consider "MTNQPTEIAIVGGGMVGGALALGLAQHGFAVTVIEHAEPAPFVADSQPDVRISAISAASVSLLKGLGVWDAVQAMRCHPYRRLETWEWETAHVVFDAAELKLPLLGYMVENTVLQQALWQALEAHPKVTLRVPGSLIALHRHDDLQELELKGGEVIRAKLVIGADGANSQVRQMAGIGVHAWQYAQSCMLISVQCENDPGDSTWQQFTPDGPRAFLPLFDNWASLVWYDSPARIRQLQNMNMAQLQAEIAKHFPSRLGYVTPLAAGAFPLTRRHALQYVQPGLALVGDAAHTIHPLAGQGVNLGYRDVDALIDVLVNARSYGEAWASYPVLKRYQMRRMADNFIMQSGMDLFYAGFSNNLPPLRFMRNLGLMAAERAGVLKRQALKYALGL" .
Result :: 4.44

Query :: Now consider "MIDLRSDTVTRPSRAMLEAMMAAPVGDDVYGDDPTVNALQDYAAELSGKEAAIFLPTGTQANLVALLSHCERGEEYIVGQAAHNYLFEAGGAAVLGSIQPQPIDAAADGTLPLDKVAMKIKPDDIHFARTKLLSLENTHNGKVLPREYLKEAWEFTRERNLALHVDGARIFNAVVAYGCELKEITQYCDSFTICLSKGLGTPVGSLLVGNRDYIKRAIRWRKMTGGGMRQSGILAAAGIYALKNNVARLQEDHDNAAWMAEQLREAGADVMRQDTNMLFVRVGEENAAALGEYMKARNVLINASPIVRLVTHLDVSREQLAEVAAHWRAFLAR" .
Result :: 5.25
